biological target: UniProt:Q13535; test: ATR enzyme activity inhibition assay (HTRF); assay type: biochemical; conditions: p53 substrate, full-length ATR enzyme
Sequence (Q13535 whole entry): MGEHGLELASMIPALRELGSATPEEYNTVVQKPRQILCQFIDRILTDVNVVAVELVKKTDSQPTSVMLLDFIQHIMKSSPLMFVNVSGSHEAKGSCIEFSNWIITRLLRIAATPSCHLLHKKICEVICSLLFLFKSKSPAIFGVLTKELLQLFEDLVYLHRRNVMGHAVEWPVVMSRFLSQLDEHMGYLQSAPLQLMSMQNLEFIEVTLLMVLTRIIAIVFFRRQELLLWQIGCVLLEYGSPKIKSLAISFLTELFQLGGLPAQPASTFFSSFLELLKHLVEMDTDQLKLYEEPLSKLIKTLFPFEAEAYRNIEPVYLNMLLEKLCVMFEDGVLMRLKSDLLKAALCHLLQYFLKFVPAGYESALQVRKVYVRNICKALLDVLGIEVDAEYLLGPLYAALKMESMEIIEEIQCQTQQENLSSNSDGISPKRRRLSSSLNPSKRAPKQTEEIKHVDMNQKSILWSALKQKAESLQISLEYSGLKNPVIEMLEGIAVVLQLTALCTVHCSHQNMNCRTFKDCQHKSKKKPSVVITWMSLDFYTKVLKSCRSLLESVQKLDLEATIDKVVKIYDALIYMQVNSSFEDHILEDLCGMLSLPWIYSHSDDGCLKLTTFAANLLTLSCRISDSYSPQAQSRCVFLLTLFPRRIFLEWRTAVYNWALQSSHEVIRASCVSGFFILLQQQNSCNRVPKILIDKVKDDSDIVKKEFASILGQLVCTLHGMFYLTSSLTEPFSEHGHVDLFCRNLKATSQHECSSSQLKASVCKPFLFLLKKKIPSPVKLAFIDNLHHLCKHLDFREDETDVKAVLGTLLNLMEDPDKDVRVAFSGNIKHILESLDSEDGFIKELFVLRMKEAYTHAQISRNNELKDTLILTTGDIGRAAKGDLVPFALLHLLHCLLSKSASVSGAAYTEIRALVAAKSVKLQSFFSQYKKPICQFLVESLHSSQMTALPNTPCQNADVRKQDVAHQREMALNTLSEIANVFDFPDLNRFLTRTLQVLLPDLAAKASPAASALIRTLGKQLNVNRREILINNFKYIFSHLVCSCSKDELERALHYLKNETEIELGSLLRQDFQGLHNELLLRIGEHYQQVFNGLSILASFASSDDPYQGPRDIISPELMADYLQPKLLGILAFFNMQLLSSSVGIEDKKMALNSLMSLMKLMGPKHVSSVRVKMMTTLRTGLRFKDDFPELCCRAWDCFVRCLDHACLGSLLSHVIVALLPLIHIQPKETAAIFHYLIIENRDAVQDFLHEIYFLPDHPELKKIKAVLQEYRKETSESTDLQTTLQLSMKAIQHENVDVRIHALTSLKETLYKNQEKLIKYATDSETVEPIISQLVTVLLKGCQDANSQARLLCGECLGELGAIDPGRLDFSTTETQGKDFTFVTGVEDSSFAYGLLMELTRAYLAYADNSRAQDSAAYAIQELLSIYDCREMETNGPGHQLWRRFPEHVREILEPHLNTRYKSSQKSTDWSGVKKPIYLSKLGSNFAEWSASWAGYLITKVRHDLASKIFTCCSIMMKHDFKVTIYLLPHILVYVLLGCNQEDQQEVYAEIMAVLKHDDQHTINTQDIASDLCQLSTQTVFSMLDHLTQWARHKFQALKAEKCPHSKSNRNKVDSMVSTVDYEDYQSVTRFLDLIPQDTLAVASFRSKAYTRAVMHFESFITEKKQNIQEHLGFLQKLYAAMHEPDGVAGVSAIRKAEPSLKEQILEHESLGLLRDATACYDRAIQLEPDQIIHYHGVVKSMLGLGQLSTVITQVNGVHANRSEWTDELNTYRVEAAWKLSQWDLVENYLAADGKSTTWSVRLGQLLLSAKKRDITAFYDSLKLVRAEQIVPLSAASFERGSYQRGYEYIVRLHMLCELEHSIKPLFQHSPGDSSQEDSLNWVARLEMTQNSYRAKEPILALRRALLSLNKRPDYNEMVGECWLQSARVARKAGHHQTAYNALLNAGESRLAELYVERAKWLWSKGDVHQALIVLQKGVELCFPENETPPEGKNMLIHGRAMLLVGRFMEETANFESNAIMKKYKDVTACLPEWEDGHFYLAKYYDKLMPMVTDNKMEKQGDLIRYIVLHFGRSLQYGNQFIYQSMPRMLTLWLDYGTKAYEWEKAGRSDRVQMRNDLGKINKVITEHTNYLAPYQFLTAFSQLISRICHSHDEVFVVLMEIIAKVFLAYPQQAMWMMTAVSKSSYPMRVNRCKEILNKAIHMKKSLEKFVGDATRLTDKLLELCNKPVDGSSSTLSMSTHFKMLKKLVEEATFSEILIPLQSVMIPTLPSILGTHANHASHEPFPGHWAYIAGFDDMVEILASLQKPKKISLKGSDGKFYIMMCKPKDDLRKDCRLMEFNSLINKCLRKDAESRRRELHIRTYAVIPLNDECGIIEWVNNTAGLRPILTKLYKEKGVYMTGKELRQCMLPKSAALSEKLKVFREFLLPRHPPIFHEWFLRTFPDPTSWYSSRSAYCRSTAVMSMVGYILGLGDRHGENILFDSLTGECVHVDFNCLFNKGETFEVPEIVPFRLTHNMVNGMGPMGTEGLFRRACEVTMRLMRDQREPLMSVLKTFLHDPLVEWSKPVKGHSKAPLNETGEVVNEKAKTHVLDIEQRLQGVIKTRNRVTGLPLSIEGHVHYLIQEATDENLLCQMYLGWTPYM
Sequence (Q8WXE1 whole entry partner): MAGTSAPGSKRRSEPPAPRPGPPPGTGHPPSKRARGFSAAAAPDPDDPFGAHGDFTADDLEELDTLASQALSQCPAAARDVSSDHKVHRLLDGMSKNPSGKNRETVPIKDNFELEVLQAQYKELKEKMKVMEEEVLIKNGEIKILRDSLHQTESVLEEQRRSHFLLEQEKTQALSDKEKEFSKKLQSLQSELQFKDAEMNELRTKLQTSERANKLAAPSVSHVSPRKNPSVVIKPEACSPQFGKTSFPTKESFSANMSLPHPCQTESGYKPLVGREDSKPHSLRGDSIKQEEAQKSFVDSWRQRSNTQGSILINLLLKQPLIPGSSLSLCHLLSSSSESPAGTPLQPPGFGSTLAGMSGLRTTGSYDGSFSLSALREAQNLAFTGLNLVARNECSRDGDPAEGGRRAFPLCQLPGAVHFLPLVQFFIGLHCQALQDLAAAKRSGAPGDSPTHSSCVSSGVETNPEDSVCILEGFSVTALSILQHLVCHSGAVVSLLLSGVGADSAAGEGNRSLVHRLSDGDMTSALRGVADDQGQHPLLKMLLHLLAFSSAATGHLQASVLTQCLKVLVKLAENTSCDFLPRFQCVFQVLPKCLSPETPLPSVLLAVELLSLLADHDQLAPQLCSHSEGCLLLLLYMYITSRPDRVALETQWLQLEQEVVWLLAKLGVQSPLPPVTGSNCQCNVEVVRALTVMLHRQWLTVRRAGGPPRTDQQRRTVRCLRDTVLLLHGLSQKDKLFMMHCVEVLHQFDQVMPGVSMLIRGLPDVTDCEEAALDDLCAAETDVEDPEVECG
Where a name gives a salt, the structure may show the parent alone.
Each item that follows carries a reported IC50.
Measured Quantity: IC50 (nM)

CC(C)S(=O)(=O)c1ccc(-c2cnc(N)c(-c3cc(-c4ccc(NC(N)=O)cc4)no3)n2)cc1; 2
CC(C)S(=O)(=O)c1ccc(-c2cnc(N)c(-c3cc(-c4ccc(CNC(=N)N)cc4C(F)(F)F)no3)n2)cc1 [Example 30, dihydrochloride]; 3.35
CC(C)S(=O)(=O)c1ccc(-c2cnc(N)c(-c3cc(-c4ccc(CNC(=N)N)cc4)no3)n2)cc1 [Example 1, dihydrochloride]; 0.97
CC(C)S(=O)(=O)c1ccc(-c2cnc(N)c(-c3cc(-c4ccc5c(c4)CNC5=O)no3)n2)cc1; 4
CC(C)S(=O)(=O)c1ccc(-c2cnc(N)c(-c3cc(-c4ccc5[nH]nnc5c4)no3)n2)cc1; 1.6
CCNC(=O)NCc1ccc(-c2cc(-c3nc(-c4ccc(S(=O)(=O)C(C)C)cc4)cnc3N)on2)cc1; 2.9
N=C(N)NCc1ccc(-c2cc(-c3nc(-c4ccc5c(c4)CCS5(=O)=O)cnc3N)on2)cc1 [Example 27, dihydrochloride]; 0.75
CN(C)C(=O)c1ccc(-c2cnc(N)c(-c3cc(-c4ccc(CNC(=N)N)cc4)no3)n2)cc1 [Example 25, dihydrochloride]; 1.98
CC(C)S(=O)(=O)c1ccc(-c2cnc(N)c(-c3cc(-c4ccc(CNC(=N)N)cc4F)no3)n2)cc1 [Example 4, dihydrochloride]; 0.83
CNC(=N)Nc1ccc(-c2cc(-c3nc(-c4ccc(S(=O)(=O)C(C)C)cc4)cnc3N)on2)cc1 [Example 17, dihydrochloride]; 0.93
CC(=N)NCc1ccc(-c2cc(-c3nc(-c4ccc(S(=O)(=O)C(C)C)cc4)cnc3N)on2)cc1 [Example 28, dihydrochloride]; 1.29
